System: P12-Ichikawa
PROTOCOL_SUMMARY: cell viability relative to DMSO control; higher = less cytotoxic
EXPERIMENTAL_PARAMETERS: RPMI 5 mM glucose + 10% dialyzed FBS; 48 h; 0.000781 µM
MEASUREMENT_NAME: cell viability (%)
Could you give me the number in %? Just the number is fine.

Past entries and their recorded results:
CCC\C1=C\C(=O)NC(=S)N1 : 102
CN1C(=O)C[C@H](C(=O)N[C@@H](Cc2cnc[nH]2)C(=O)N2CCC[C@H]2C(N)=O)NC1=O : 114

Recall the reported cell viability of Cc1ccc([S+](=O)([O-])Nc2nc3ccccc3nc2Nc2ccc3nsnc3c2)cc1 on P12-Ichikawa and write it down.
92

Recall the reported cell viability of C[S+](=O)([O-])c1ccc(-c2cnc(N)c(C(=O)Nc3ccccc3)n2)cc1 on P12-Ichikawa and write it down.
104

Recall the reported cell viability of Cc1cnc(C(=O)O)c[n+]1[O-] on P12-Ichikawa and write it down.
121

Recall the reported cell viability of CNC[C@H](O)c1cccc(O)c1 on P12-Ichikawa and write it down.
84.5

Recall the reported cell viability of CC(C)c1cc(C(=O)N2Cc3ccc(CN4CCN(C)CC4)cc3C2)c(O)cc1O on P12-Ichikawa and write it down.
119

Recall the reported cell viability of O=C(Oc1ccc([N+](=O)[O-])cc1)N1CCC(C(O)(c2ccc3c(c2)OCO3)c2ccc3c(c2)OCO3)CC1 on P12-Ichikawa and write it down.
75.9

Recall the reported cell viability of ClC1=CC\2=C(NC(=O)\C(=C2N[C@@H]3CN4CCC3CC4)C5=NC6=C([NH]5)C=CC=C6)C=C1 on P12-Ichikawa and write it down.
116

Recall the reported cell viability of CC[C@@]1(O)C(=O)OCC/2=C1/C=C3\N(CC4=CC5=CC(=CC=C5N=C34)O)C2=O on P12-Ichikawa and write it down.
115
